# System: Pythium
# run description: Antifungal activity against Pythium sp. assessed as growth inhibition at 10 ppm by agar dilution method
# Format: functional
# test context: read-out: GI
// f strictly below 40% in inhibition of growth at 10 ppm; t otherwise

[Q] Identify whether the reported inhibition of growth at 10 ppm of the following molecule is 40% or greater: CCCc1ccc2c(c1)COP(=S)(NCC(C)C)O2 (configuration not stated)
[A] t

[Q] Identify whether the reported inhibition of growth at 10 ppm of the following molecule is 40% or greater: CCC(C)c1ccc2c(c1)COP(=S)(NC(C)C)O2 (configuration not stated)
[A] f

[Q] Identify whether the reported inhibition of growth at 10 ppm of the following molecule is 40% or greater: CCCCc1ccc2c(c1)COP(=S)(NCCC)O2 (configuration not stated)
[A] t

[Q] Identify whether the reported inhibition of growth at 10 ppm of the following molecule is 40% or greater: CCCNP1(=S)OCc2cc(C(C)C)ccc2O1 (configuration not stated)
[A] t

[Q] Identify whether the reported inhibition of growth at 10 ppm of the following molecule is 40% or greater: CCCCNP1(=S)OCc2cc(C(C)C)ccc2O1 (configuration not stated)
[A] f

[Q] Identify whether the reported inhibition of growth at 10 ppm of the following molecule is 40% or greater: CCCc1ccc2c(c1)COP(=S)(NC(C)C)O2 (configuration not stated)
[A] t

[Q] Identify whether the reported inhibition of growth at 10 ppm of the following molecule is 40% or greater: CC(C)OP(=O)(OC(C)C)SCc1ccccc1
[A] t
